Origin of the recorded values: paper PMC10204944

Parameter: pKd. Scope: all listed entries.
biological target: T1, recombinant PRL-3 (Phosphatase of Regenerating Liver-3) (Homo sapiens, UniProt O75365); test: BLI; BLItz; nanobody (626.57 nM) loaded on Anti-Penta-HIS (HIS1K) biosensors; PRL-3 as analyte at six concentrations; association 5 min, dissociation 2 min; 1X kinetics buffer; global fit; conditions: both partners purified
T1 construct: Phosphatase of Regenerating Liver-3 (PRL-3), human cDNA amplified with gene-specific primers and cloned into pSKB3 (NheI/XhoI); also called apo PRL-3; PTP4A family member; source: E. coli One-Shot BL21 Star DE3, purified (Ni-NTA, TEV cleavage, Superdex 200); not shown: 6XHis, N-terminal, cleaved
T1 sequence (O75365 1-169): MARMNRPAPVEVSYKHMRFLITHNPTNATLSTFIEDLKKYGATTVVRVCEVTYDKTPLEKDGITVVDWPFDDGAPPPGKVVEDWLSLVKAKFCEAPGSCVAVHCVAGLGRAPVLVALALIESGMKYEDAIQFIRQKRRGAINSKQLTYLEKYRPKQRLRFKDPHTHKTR
The quantity pKd is defined as the negative base-10 logarithm of the molar concentration.

binder	pKd
anti-PRL-3 nanobody 4 (VHH, also called NB 4; source: E. coli One-Shot BL21 Star DE3 (pMES4), purified (Ni-NTA, Superdex 200); not shown: 6XHis, C-terminal, kept) VHH: QVQLQESGGGLVQTGGSLRLSCAASQSTYNFDVMGWYRLAPGKQREFLTSITNGGNIYYADSVKGRFTIARDDSKTTMYLEMNSLKPEDTAVYTCYGQTHKPRVTTSWGQGTQVTVSS	6.69

With those in mind, consider the next binder.
Query: Fill in reported pKd for this entry: anti-PRL-3 nanobody 19 (VHH, also called NB 19; source: E. coli One-Shot BL21 Star DE3 (pMES4), purified (Ni-NTA, Superdex 200); not shown: 6XHis, C-terminal, kept) VHH: QVQLQESGGGLVQAGGSLGLSCAASRSIFNFKVMGWYRQAPGKQRELVASITNSDNTYYADSVKGRFTISREDAKTTMYLEMNSLKPEDTAVYRCYGQNWGLRATTYWGQGTQVTVSS
Response: 7.01
